assay: Oral bioavailability cynomolgus monkey at 1 mg/kg by LC-MS/MS method; format: ADME, organism-based, Macaca fascicularis; settings: in vivo
reported-property: bioavailability (%)
Give bare numbers, in %.

Example molecules with recorded bioavailability:
{"molecule": "Cc1nc2cc(-n3ncc(C(=O)c4cc5ccc(CN6CCOCC6)cc5[nH]4)c3N)ccc2[nH]1", "test-value": 0}
{"molecule": "Cc1nc2cc(-n3ncc(C(=O)c4cc5ccc(-c6ccccc6)cc5[nH]4)c3N)ccc2[nH]1", "test-value": 3}
{"molecule": "Cc1nc2cc(-n3ncc(C(=O)c4cc5ccccc5[nH]4)c3N)ccc2[nH]1 [FGFR INHIBITOR DEBIO 1347]", "test-value": 30}
{"molecule": "Cc1nc2cc(-n3ncc(C(=O)c4cc5ccc(Br)cc5[nH]4)c3N)ccc2[nH]1", "test-value": 20}

stdin: Which value of bioavailability has been reported for "Cc1nc2cc(-n3ncc(C(=O)c4cc5ccc(CN6CCC(F)(F)CC6)cc5[nH]4)c3N)ccc2[nH]1" in the records?
stdout: 5

###

target: Vascular endothelial growth factor receptor 2 (Homo sapiens, UniProt P35968)
Sequence (P35968 whole entry): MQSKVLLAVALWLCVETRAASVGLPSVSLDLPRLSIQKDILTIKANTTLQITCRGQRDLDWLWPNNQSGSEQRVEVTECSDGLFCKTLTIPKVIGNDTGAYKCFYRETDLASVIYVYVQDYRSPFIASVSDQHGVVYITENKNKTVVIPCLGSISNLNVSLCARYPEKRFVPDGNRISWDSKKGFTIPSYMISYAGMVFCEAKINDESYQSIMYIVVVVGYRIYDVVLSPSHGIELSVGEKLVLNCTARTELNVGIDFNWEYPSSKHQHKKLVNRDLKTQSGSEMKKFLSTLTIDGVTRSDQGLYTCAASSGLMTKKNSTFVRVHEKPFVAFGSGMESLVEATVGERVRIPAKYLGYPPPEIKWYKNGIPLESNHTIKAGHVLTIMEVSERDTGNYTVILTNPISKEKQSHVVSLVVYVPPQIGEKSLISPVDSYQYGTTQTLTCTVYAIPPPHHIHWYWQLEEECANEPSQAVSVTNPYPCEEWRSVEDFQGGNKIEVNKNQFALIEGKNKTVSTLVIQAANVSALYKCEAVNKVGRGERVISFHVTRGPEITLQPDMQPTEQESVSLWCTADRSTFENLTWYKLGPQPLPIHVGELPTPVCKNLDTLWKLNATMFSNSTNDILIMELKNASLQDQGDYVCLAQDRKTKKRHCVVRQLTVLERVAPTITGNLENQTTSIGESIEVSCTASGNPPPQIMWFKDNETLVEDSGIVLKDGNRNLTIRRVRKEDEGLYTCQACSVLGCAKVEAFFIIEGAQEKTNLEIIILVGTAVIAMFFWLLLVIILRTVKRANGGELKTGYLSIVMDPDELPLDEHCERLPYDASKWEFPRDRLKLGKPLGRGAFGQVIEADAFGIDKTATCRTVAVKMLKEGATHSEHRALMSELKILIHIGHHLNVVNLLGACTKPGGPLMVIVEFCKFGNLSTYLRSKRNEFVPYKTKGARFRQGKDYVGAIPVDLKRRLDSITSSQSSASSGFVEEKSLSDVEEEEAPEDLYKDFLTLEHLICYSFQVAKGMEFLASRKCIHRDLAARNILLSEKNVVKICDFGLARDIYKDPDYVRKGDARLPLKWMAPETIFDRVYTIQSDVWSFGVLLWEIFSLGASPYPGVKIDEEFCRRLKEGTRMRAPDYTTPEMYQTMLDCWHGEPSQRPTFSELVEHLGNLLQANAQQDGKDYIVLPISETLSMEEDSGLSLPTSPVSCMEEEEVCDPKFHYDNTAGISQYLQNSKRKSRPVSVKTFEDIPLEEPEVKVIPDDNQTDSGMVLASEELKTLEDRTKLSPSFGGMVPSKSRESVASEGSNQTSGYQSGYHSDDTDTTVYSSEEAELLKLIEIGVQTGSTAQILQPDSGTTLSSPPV
# yes = IC50 below 2000 nM (exclusive); no = IC50 at/above 2000 nM

{"given-smiles": "Nc1c(C(=O)c2cc3ccccc3[nH]2)cnn1-c1ccc2[nH]c(=O)[nH]c2c1", "system-under-test": "Vascular endothelial growth factor receptor 2 (Homo sapiens, UniProt P35968)", "label": "no"}
{"given-smiles": "Cc1nc2cc(-n3ncc(C(=O)c4cc5ccc(Br)cc5[nH]4)c3N)ccc2[nH]1", "system-under-test": "Vascular endothelial growth factor receptor 2 (Homo sapiens, UniProt P35968)", "label": "yes"}
{"given-smiles": "Cc1nc2ccc(-n3ncc(C(=O)c4cc5cc(CN6CCOCC6)ccc5[nH]4)c3N)cc2[nH]1", "system-under-test": "Vascular endothelial growth factor receptor 2 (Homo sapiens, UniProt P35968)", "label": "yes"}

stdin: Report whether reported IC50 is lower than 2000 nM (strictly) for "Nc1c(C(=O)c2ccc3ncccc3c2)cnn1-c1cc(O)ccc1Cl"
stdout: yes

stdin: Then what about the compound "Cc1nc2cc(-n3ncc(C(=O)c4cc5ccc(CN6CCC(F)(F)CC6)cc5[nH]4)c3N)ccc2[nH]1" ?
stdout: yes

###

Would you kindly list log10 of IC50 for each of these molecules?
assay: Antiproliferative activity against human SNU16 cells incubated for 4 days by CCK8 assay; format: functional, cell-based; conditions: SNU-16, 96 h
Parameter value (number): base-10 log of IC50 in nM.

Example molecules with recorded log10 of IC50:
{"given-smiles": "Nc1c(C(=O)c2ccc3ncccc3c2)cnn1-c1cc(O)ccc1Cl", "log10 of IC50": 3.95}
{"given-smiles": "Cc1nc2cc(-n3ncc(C(=O)c4cc5ccc(S(C)(=O)=O)cc5[nH]4)c3N)ccc2[nH]1", "log10 of IC50": 1.91}
{"given-smiles": "Nc1c(C(=O)c2cc3ccccc3[nH]2)cnn1-c1ccccc1Cl", "log10 of IC50": 3.46}
{"given-smiles": "Cc1cc2cc(-n3ncc(C(=O)c4cc5ccccc5[nH]4)c3N)ccc2[nH]1", "log10 of IC50": 1.72}
{"given-smiles": "Cc1nc2cc(-n3ncc(C(=O)c4cc5ccc(CN6CCC(F)(F)CC6)cc5[nH]4)c3N)ccc2[nH]1", "log10 of IC50": 0.78}
{"given-smiles": "CCc1nc2cc(-n3ncc(C(=O)c4cc5ccccc5[nH]4)c3N)ccc2[nH]1", "log10 of IC50": 1.89}

Batch lookup, log10 of IC50 per entry.
1. Cc1nc2cc(-n3ncc(C(=O)c4cc5ccc(-c6ccccc6)cc5[nH]4)c3N)ccc2[nH]1
2. Nc1c(C(=O)c2cc3ccccc3o2)cnn1-c1cc(O)ccc1Cl

stdout:
[1.92, 3.52]

###

assay: Intrinsic clearance in human liver microsomes at 1 uM in presence of NADPH incubated for 30 mins by LC/MS method; type: ADME; settings: read-out: CLH
Would you kindly list microsomal CLint at 1 µM for each of these compounds?
One number for each entry, in µL/min/mg.

Example compounds with recorded microsomal CLint at 1 µM:
{"given-smiles": "Cc1nc2cc(-n3ncc(C(=O)c4cc5ccc(S(C)(=O)=O)cc5[nH]4)c3N)ccc2[nH]1", "measure-unit": "µL/min/mg", "microsomal CLint at 1 µM": 5.4}
{"given-smiles": "Cc1nc2ccc(-n3ncc(C(=O)c4cc5cc(CN6CCOCC6)ccc5[nH]4)c3N)cc2[nH]1", "measure-unit": "µL/min/mg", "microsomal CLint at 1 µM": 15}
{"given-smiles": "CCc1nc2cc(-n3ncc(C(=O)c4cc5ccccc5[nH]4)c3N)ccc2[nH]1", "measure-unit": "µL/min/mg", "microsomal CLint at 1 µM": 23}

Batch lookup, microsomal CLint at 1 µM per entry.
1. Cc1nc2cc(-n3ncc(C(=O)c4cc5ccc(CN6CCC(F)(F)CC6)cc5[nH]4)c3N)ccc2[nH]1
2. Cc1nc2cc(-n3ncc(C(=O)c4cc5ccc(-c6ccccc6)cc5[nH]4)c3N)ccc2[nH]1
3. Cc1nc2cc(-n3ncc(C(=O)c4cc5ccc(Br)cc5[nH]4)c3N)ccc2[nH]1
4. Nc1c(C(=O)c2cc3ccccc3[nH]2)cnn1-c1ccc2[nH]ccc2c1
5. Cc1nc2cc(-n3ncc(C(=O)c4cc5ccccc5[nH]4)c3N)ccc2[nH]1
6. Cc1cc2cc(-n3ncc(C(=O)c4cc5ccccc5[nH]4)c3N)ccc2[nH]1

stdout:
[14, 3.2, 4.2, 4.4, 13, 10]

###

Would you kindly list inhibition at 10 µM for each of these compounds?
molecular target: hERG (KCNH2) (Homo sapiens); experiment: Inhibition of human ERG expressed in CHO cells assessed as reduction in channel currents at 10 uM at -80 mV holding potential by automated whole-cell patch clamp method; settings: CHO cells that express hERG
Sequence (Q12809 whole entry): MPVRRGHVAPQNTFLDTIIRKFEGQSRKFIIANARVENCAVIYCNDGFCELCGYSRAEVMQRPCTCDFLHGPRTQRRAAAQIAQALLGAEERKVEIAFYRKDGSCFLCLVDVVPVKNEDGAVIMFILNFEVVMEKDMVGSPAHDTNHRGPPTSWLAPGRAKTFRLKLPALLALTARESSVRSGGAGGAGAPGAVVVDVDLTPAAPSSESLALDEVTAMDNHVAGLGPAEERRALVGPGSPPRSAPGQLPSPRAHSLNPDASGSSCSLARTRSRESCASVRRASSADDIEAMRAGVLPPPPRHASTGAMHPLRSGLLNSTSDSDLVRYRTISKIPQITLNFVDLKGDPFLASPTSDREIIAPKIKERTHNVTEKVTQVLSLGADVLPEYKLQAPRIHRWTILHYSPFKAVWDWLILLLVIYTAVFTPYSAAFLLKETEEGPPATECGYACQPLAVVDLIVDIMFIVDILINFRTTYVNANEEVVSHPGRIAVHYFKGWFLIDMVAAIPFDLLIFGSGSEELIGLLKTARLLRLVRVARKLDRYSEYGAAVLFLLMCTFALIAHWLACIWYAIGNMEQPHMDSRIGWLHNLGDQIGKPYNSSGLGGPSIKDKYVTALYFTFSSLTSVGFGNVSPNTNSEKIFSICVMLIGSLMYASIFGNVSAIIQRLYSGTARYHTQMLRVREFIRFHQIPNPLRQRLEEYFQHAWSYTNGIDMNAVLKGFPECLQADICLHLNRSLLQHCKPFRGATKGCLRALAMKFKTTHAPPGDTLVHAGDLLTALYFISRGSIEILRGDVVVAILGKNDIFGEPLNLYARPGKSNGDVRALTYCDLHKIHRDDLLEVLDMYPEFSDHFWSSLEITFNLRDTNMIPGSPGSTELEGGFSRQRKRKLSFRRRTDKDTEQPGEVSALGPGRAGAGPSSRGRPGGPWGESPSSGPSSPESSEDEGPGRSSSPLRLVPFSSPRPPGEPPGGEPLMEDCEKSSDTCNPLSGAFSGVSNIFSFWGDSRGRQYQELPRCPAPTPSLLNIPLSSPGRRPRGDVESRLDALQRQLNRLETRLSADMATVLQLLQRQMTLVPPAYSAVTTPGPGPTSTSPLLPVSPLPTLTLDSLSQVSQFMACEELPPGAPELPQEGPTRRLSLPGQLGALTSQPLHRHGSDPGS
Numbers only, in %.

Example compounds with recorded inhibition at 10 µM:
{"given-smiles": "Cc1nc2ccc(-n3ncc(C(=O)c4cc5cc(CN6CCOCC6)ccc5[nH]4)c3N)cc2[nH]1", "test-value": 7}
{"given-smiles": "Cc1ccc2cc(C(=O)c3cnn(-c4ccc5nc(C)[nH]c5c4)c3N)[nH]c2c1", "test-value": 64}
{"given-smiles": "Cc1nc2cc(-n3ncc(C(=O)c4cc5ccc(Br)cc5[nH]4)c3N)ccc2[nH]1", "test-value": 31}
{"given-smiles": "Cc1nc2cc(-n3ncc(C(=O)c4cc5ccccc5[nH]4)c3N)ccc2[nH]1", "test-value": 69}
{"given-smiles": "Cc1nc2cc(-n3ncc(C(=O)c4cc5ccc(-c6ccccc6)cc5[nH]4)c3N)ccc2[nH]1", "test-value": 15}

Batch lookup, inhibition at 10 µM per entry.
1. Cc1nc2cc(-n3ncc(C(=O)c4cc5ccc(CN6CCOCC6)cc5[nH]4)c3N)ccc2[nH]1
2. Cc1nc2cc(-n3ncc(C(=O)c4cc5ccc(CN6CCC(F)(F)CC6)cc5[nH]4)c3N)ccc2[nH]1

stdout:
1: 15; 2: 58

###

Measurement record for UniProt P35968; quantity recorded: pIC50.
Give bare numbers, as −log10 of the molar value.

Example compounds with recorded pIC50:
{"given-smiles": "Cc1nc2cc(-n3ncc(C(=O)c4cc5ccc(S(C)(=O)=O)cc5[nH]4)c3N)ccc2[nH]1", "test-value": 6.00}
{"given-smiles": "Nc1c(C(=O)c2cc3ccccc3o2)cnn1-c1cc(O)ccc1Cl", "test-value": 6.77}
{"given-smiles": "CCc1nc2cc(-n3ncc(C(=O)c4cc5ccccc5[nH]4)c3N)ccc2[nH]1", "test-value": 5.77}

API: the following record is the query input.
stdin: Which value of pIC50 has been reported for "Cc1nc2cc(-n3ncc(C(=O)c4cc5ccccc5[nH]4)c3N)ccc2[nH]1" in the records?
stdout: 5.68

###

molecular target: Fibroblast growth factor receptor 4 (Homo sapiens, UniProt P22455)
Sequence (P22455 whole entry): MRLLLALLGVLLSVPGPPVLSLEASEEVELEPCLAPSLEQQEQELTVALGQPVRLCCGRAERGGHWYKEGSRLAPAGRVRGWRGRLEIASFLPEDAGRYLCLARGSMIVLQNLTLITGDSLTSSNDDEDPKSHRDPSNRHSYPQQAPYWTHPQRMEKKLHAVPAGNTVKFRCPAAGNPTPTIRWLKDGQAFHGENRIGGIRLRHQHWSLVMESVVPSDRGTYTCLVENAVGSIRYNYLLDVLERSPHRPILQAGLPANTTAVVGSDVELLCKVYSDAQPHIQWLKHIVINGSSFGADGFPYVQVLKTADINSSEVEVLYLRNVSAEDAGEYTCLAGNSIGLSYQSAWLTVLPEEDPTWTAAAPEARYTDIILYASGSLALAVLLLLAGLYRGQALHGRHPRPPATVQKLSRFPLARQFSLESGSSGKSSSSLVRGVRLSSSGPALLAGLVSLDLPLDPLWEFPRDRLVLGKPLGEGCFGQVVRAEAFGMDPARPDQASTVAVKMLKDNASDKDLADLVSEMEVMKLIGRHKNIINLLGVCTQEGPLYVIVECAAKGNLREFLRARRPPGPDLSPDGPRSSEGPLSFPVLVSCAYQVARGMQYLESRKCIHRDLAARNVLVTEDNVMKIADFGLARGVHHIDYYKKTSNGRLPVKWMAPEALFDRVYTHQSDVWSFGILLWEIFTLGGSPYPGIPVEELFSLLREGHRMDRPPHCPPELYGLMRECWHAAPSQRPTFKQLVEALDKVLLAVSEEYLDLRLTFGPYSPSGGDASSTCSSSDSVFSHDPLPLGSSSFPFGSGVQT
pIC50: −log10 of the molar value.
reported-property: pIC50

stdin: Which value of pIC50 has been reported for "Nc1c(C(=O)c2cc3ccccc3[nH]2)cnn1-c1ccc2[nH]c(=O)[nH]c2c1" in the records?
stdout: < 4.30

###

Would you kindly list solubility at 2 h for each of these compounds?
assay: Solubility in FaSSIF at pH 6.5 irradiated ultrasonically for 10 mins and shaken for 2 hrs followed by centrifugation for 10 mins by HPLC-UV method; format: physicochemical
One number for each entry, in µg/mL.

Example compounds with recorded solubility at 2 h:
{"compound": "Nc1c(C(=O)c2cc3ccccc3[nH]2)cnn1-c1ccc2[nH]ccc2c1", "solubility at 2 h (µg/mL)": 4}
{"compound": "CCc1nc2cc(-n3ncc(C(=O)c4cc5ccccc5[nH]4)c3N)ccc2[nH]1", "solubility at 2 h (µg/mL)": 42}
{"compound": "Nc1c(C(=O)c2cc3ccccc3[nH]2)cnn1-c1cc(O)ccc1Cl", "solubility at 2 h (µg/mL)": 20}
{"compound": "Nc1c(C(=O)c2cc3ccccc3[nH]2)cnn1-c1ccc2nc[nH]c2c1", "solubility at 2 h (µg/mL)": 37}
{"compound": "Cc1nc2cc(-n3ncc(C(=O)c4cc5ccccc5[nH]4)c3N)ccc2[nH]1 [FGFR INHIBITOR DEBIO 1347]", "solubility at 2 h (µg/mL)": 29}

Batch lookup, solubility at 2 h per entry.
1. Nc1c(C(=O)c2cc3cc(CN4CCOCC4)ccc3[nH]2)cnn1-c1cc(O)ccc1Cl
2. Cc1cc2cc(-n3ncc(C(=O)c4cc5ccccc5[nH]4)c3N)ccc2[nH]1

stdout:
1. 40
2. 10
